These data points were gathered from the supplement of paper PMC6555819.

# System: PXR homodimer (NR concentration 270 nM)
# test description: PBM binding z-score (relative to random genomic background probes); higher = stronger binding; sequences stand for … in GC…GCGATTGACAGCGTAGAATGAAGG
PBM binding z-score values by entry
measured property: PBM binding z-score

[
  {
    "sequence content": "ATTCAAAGTTCAGGACGAGGTAACGTAAAGCACG",
    "measured property": "PBM binding z-score",
    "measurement": 1.44
  },
  {
    "sequence content": "ATCAAAAGGTCGACGAGGTGAGTATACACCGTTT",
    "measured property": "PBM binding z-score",
    "measurement": 0.528
  },
  {
    "sequence content": "ACTAGTTAGTCAGCTGAGGTCACACACAATTCGG",
    "measured property": "PBM binding z-score",
    "measurement": 1.6
  },
  {
    "sequence content": "TCTACAGGGTCAAAGGCCAGAGTACGAATGTCGA",
    "measured property": "PBM binding z-score",
    "measurement": 0.202
  },
  {
    "sequence content": "CCTAGTTGGTTAGGAGGTCACACACCGGATATGA",
    "measured property": "PBM binding z-score",
    "measurement": 1.84
  },
  {
    "sequence content": "CGTCCAAGGTCAGAGATGTCAGTGAATGCCGAGT",
    "measured property": "PBM binding z-score",
    "measurement": 1
  },
  {
    "sequence content": "TCGAGTTGGTCAAAGGTCACACACTCGAAATGCG",
    "measured property": "PBM binding z-score",
    "measurement": 1.41
  },
  {
    "sequence content": "TCTTGTAGATCACGCAGGTTAAGAAAGCCTGAGT",
    "measured property": "PBM binding z-score",
    "measurement": 0.000906
  },
  {
    "sequence content": "TCTCGGAGGACACGAAGGCCAGAGCTTTCCAGAG",
    "measured property": "PBM binding z-score",
    "measurement": -0.919
  },
  {
    "sequence content": "ATCTCTAGGTAACCAAGTTCAGTGTATGCCGAAC",
    "measured property": "PBM binding z-score",
    "measurement": 1.95
  },
  {
    "sequence content": "CAAACTAGGCCACAGAGGTCAAAGTCCGTGCGTA",
    "measured property": "PBM binding z-score",
    "measurement": 4.73
  },
  {
    "sequence content": "CCGACTGGGGCAAGGTTATCATAACGCACAGCCA",
    "measured property": "PBM binding z-score",
    "measurement": -0.27
  }
]
